STUDY_TARGET: HLA-B*57:01
METHOD: IEDB peptide-MHC binding, purified MHC/direct/fluorescence; filed as Kd, often an IC50 or EC50 that approximates it; bounds were set here for any values at or beyond the usual limits of such assays
RUN_PARAMETERS: source organism: Entamoeba histolytica HM-1:IMSS
pKd: −log10 of the molar value.
RESULT_TYPE: pKd

**Query** Using the record for `ETMKPAAMV` , report its pKd.
**Result** ≤ 4.70

----------
STUDY_TARGET: HLA-B*35:01
METHOD: IEDB peptide-MHC binding, purified MHC/competitive/fluorescence; filed as Kd, often an IC50 or EC50 that approximates it; bounds were set here for any values at or beyond the usual limits of such assays
RUN_PARAMETERS: source organism: Yersinia pestis Nepal516
RESULT_TYPE: Kd

**Query** Give recorded Kd with HLA-B*35:01 for the following sequence: `FPVAMLSCL`
**Result** ≤ 0.1 nM

----------
STUDY_TARGET: HLA-B*40:01
METHOD: IEDB peptide-MHC binding, purified MHC/competitive/radioactivity; filed as Kd, often an IC50 or EC50 that approximates it; bounds were set here for any values at or beyond the usual limits of such assays
RUN_PARAMETERS: source organism: Dengue virus 1 Singapore/S275/1990
RESULT_TYPE: Kd (nM)
Reply numerically in nM, unit not repeated.

**Query** Using the record for `AENHHHATM` , report its Kd.
**Result** 10.1

----------
STUDY_TARGET: HLA-A*11:01
METHOD: IEDB peptide-MHC binding, purified MHC/competitive/radioactivity; filed as Kd, often an IC50 or EC50 that approximates it; bounds were set here for any values at or beyond the usual limits of such assays
RUN_PARAMETERS: source organism: Vaccinia virus WR
Quick reference: pKd of the listed items.
Schema: pKd number; meaning minus log10 of the concentration expressed in molar units.

>  <ITEM_SEQUENCE>
EIINFTISMR

>  <pKd>
5.69

$$$$
>  <ITEM_SEQUENCE>
NARMATMLEY

>  <pKd>
7.46

$$$$
>  <ITEM_SEQUENCE>
GARVIWMDAY

>  <pKd>
5.26

$$$$
>  <ITEM_SEQUENCE>
ISDNKKEYK

>  <pKd>
6.44

$$$$
>  <ITEM_SEQUENCE>
NTMCTEETK

>  <pKd>
7.55

$$$$
>  <ITEM_SEQUENCE>
SFLRKIGDK

>  <pKd>
5.41

$$$$

**Query** Using the record for `YVEKEENMDK` , report its pKd.
**Result** 5.66

**Query** Using the record for `QTPTKLMNK` , report its pKd.
**Result** 6.51

**Query** Using the record for `TTYMDTFFR` , report its pKd.
**Result** 8.70

**Query** Using the record for `AITDNGPMPY` , report its pKd.
**Result** 6.47

**Query** Using the record for `PIIVAGFSGK` , report its pKd.
**Result** 6.12

----------
STUDY_TARGET: HLA-C*14:02
METHOD: IEDB peptide-MHC binding, purified MHC/competitive/fluorescence; filed as Kd, often an IC50 or EC50 that approximates it; bounds were set here for any values at or beyond the usual limits of such assays
RUN_PARAMETERS: source organism: Coxiella burnetii RSA 493
RESULT_TYPE: Kd (nM)
Reply numerically in nM, unit not repeated.

**Query** Using the record for `YRATYSMAL` , report its Kd.
**Result** 119

----------
STUDY_TARGET: HLA-A*02:11
METHOD: IEDB peptide-MHC binding, purified MHC/direct/fluorescence; filed as Kd, often an IC50 or EC50 that approximates it; bounds were set here for any values at or beyond the usual limits of such assays
RUN_PARAMETERS: source organism: Vibrio vulnificus CMCP6
RESULT_TYPE: Kd

**Query** Using the record for `SVMSTFFWE` , report its Kd.
**Result** ≥ 20 µM

----------
STUDY_TARGET: HLA-B*46:01
METHOD: IEDB peptide-MHC binding, purified MHC/competitive/fluorescence; filed as Kd, often an IC50 or EC50 that approximates it; bounds were set here for any values at or beyond the usual limits of such assays
RUN_PARAMETERS: source organism: Campylobacter jejuni subsp. jejuni NCTC 11168 = ATCC 700819
RESULT_TYPE: Kd

**Query** Using the record for `AELIDSFTW` , report its Kd.
**Result** ≥ 20 µM

----------
STUDY_TARGET: HLA-B*15:01
METHOD: IEDB peptide-MHC binding, purified MHC/direct/fluorescence; filed as Kd, often an IC50 or EC50 that approximates it; bounds were set here for any values at or beyond the usual limits of such assays
RUN_PARAMETERS: source organism: Salmonella enterica subsp. enterica serovar Typhi
RESULT_TYPE: pKd
Schema: pKd number; meaning minus log10 of the concentration expressed in molar units.

**Query** Give recorded pKd with HLA-B*15:01 for the following sequence: `IVLLCYGGW`
**Result** 5.21

----------
STUDY_TARGET: HLA-A*03:01
METHOD: IEDB peptide-MHC binding, purified MHC/competitive/radioactivity; filed as Kd, often an IC50 or EC50 that approximates it; bounds were set here for any values at or beyond the usual limits of such assays
RUN_PARAMETERS: source organism: Homo sapiens
RESULT_TYPE: pKd
Schema: pKd number; meaning minus log10 of the concentration expressed in molar units.

>  <ITEM_SEQUENCE>
EINKNPKYK

>  <pKd>
6.12

$$$$

// next item, pKd requested
**Query** Using the record for `RLQLSNGNR` , report its pKd.
**Result** 6.39

----------
STUDY_TARGET: HLA-B*27:05
METHOD: IEDB peptide-MHC binding, purified MHC/direct/fluorescence; filed as Kd, often an IC50 or EC50 that approximates it; bounds were set here for any values at or beyond the usual limits of such assays
RUN_PARAMETERS: source organism: Giardia lamblia ATCC 50803
RESULT_TYPE: Kd

>  <ITEM_SEQUENCE>
VSSKKCTAL

>  <RESULT_TYPE>
Kd

>  <RESULT>
≥ 20 µM

$$$$

**Query** Using the record for `PPQATAKYL` , report its Kd.
**Result** ≥ 20 µM

----------
STUDY_TARGET: HLA-B*48:01
METHOD: IEDB peptide-MHC binding, purified MHC/direct/fluorescence; filed as Kd, often an IC50 or EC50 that approximates it; bounds were set here for any values at or beyond the usual limits of such assays
RUN_PARAMETERS: source organism: Giardia intestinalis
RESULT_TYPE: Kd

**Query** Give recorded Kd with HLA-B*48:01 for the following sequence: `LEKWNLGII`
**Result** ≥ 20 µM

----------
STUDY_TARGET: HLA-A*01:01
METHOD: IEDB peptide-MHC binding, purified MHC/competitive/fluorescence; filed as Kd, often an IC50 or EC50 that approximates it; bounds were set here for any values at or beyond the usual limits of such assays
RUN_PARAMETERS: source organism: Pseudomonas aeruginosa UCBPP-PA14
RESULT_TYPE: Kd

**Query** Using the record for `FLDDASNSA` , report its Kd.
**Result** ≥ 20 µM

----------
STUDY_TARGET: HLA-B*08:02
METHOD: IEDB peptide-MHC binding, purified MHC/direct/fluorescence; filed as Kd, often an IC50 or EC50 that approximates it; bounds were set here for any values at or beyond the usual limits of such assays
RUN_PARAMETERS: source organism: Influenza A virus(A/swine/Shandong/fNY/2003(H9N2))
RESULT_TYPE: Kd

**Query** Using the record for `SFSFGGFTF` , report its Kd.
**Result** ≥ 20 µM

----------
STUDY_TARGET: HLA-B*15:17
METHOD: IEDB peptide-MHC binding, purified MHC/competitive/fluorescence; filed as Kd, often an IC50 or EC50 that approximates it; bounds were set here for any values at or beyond the usual limits of such assays
RUN_PARAMETERS: source organism: Four Corners hantavirus
RESULT_TYPE: Kd

**Query** Using the record for `PELGAFFAI` , report its Kd.
**Result** ≥ 20 µM

----------
STUDY_TARGET: HLA-A*30:01
METHOD: IEDB peptide-MHC binding, purified MHC/competitive/radioactivity; filed as Kd, often an IC50 or EC50 that approximates it; bounds were set here for any values at or beyond the usual limits of such assays
RUN_PARAMETERS: source organism: Vaccinia virus Copenhagen
RESULT_TYPE: pKd
Schema: pKd number; meaning minus log10 of the concentration expressed in molar units.

**Query** Using the record for `STSSSYLYA` , report its pKd.
**Result** 7.88

----------
STUDY_TARGET: HLA-A*29:02
METHOD: IEDB peptide-MHC binding, purified MHC/direct/fluorescence; filed as Kd, often an IC50 or EC50 that approximates it; bounds were set here for any values at or beyond the usual limits of such assays
RUN_PARAMETERS: source organism: Coxiella burnetii Q321
RESULT_TYPE: Kd

**Query** Using the record for `YRATYSMAL` , report its Kd.
**Result** ≥ 20 µM
